Test system: IFN-γ production in human peripheral blood mononuclear cells (PBMCs)
Assay: Experiment 2: IFN-γ production by PHA-stimulated human PBMCs, ELISA
Assay type: cell-based
Conditions: 300 μM, Subject 1, 24 h
[IFN-γ] vs control values, listed per item

Worked cases, answers included:
N=c1nc(N)c(-c2cccc(Cl)c2Cl)nn1CC(Cl)(Cl)Cl [CEN-216] = 0.0%
Nc1nnc(-c2cc(C(F)(F)F)cc(C(F)(F)F)c2)c(N)n1 [CEN-092] = 0.0%
Nc1nnc(-c2sc(Cl)c(Cl)c2Cl)c(N)n1 [CEN-079] = 0.0%

Input: Under IFN-γ production in human peripheral blood mononuclear cells (PBMCs): report [IFN-γ] vs control of Nc1nnc(-c2cccc(Cl)c2Cl)c(N)n1 [Lamotrigine] .
Output: 8.5%

Reference for the values: patent US10576086B2
